# Protocol: NCI Yeast Anticancer Drug Screen. Data for the mec2-1 strain (AID 157)
# Measurement Conditions: S. cerevisiae mec2-1 strain, at 5.0 µM (retest, dose inferred, filed as 0.5), active compounds read high
This is part of a sample that, as a whole, favours compounds with a hit. Of some 79,000 tested, about 15% had one in any assay.
The entries below come with measured growth inhibition values attached.
Write the answer as a number in %, unit excluded.

Value of measured growth inhibition for the entry COc1cc(Nc2ccc(O)cc2)c2ncccc2c1 : 18

###

# Protocol: NCI Yeast Anticancer Drug Screen. Data for the mlh1 rad18 strain (AID 175)
# Measurement Conditions: S. cerevisiae mlh1 rad18 strain growth inhibition; at 50.0 µM; active compounds read high
The panel holds about 79,000 compounds, 15% with a hit somewhere; the sample as a whole holds those more often.
Threshold rule: growth inhibition greater than or equal to 90% is met; below that, not met.

Solved entries (count: 3):
Compound	Assigned Class
CCc1cccc(C)c1NC(=O)C(=O)CC(=O)c1ccccc1Cl	not met
O=C(O)CCCCCCCCCCOc1ccc(Cl)cc1Cl	met
Cc1ccc2c(c1)[n+]([O-])c(N)n[n+]2[O-]	not met

// query Can CCOC(=O)/C(C#N)=C\c1ccc(N(CCC(=O)O)CCC(=O)O)c(I)c1 be said to have growth inhibition at or above 90%?
// result not met
